# Species on record: Rattus norvegicus
# Test summary: Open TG-GATES - Regimen: Daily Repeat
# Assay type: toxicity, organism-based, Sprague-Dawley
# Set-up: regimen Daily Repeat, gender Male, age 6 weeks
# Reported conditions: in vivo, po, 0 mg/kg, […], tissue Plasma, route gavage, dose level Control, time 28 day
# A/G listing for each entry below
Would you mind answering with just the numeric figure?

Reference set (7 entries):
[[record]]
compound = "C[C@H]1O[C@H](O[C@H]2[C@H](O)[C@@H](O)[C@@H](O[C@H]3[C@H](O)[C@@H](O)C(O)O[C@@H]3CO)O[C@@H]2CO)[C@H](O)[C@@H](O)[C@@H]1N[C@H]1C=C(CO)[C@@H](O)[C@H](O)[C@H]1O (stereo partly drawn)"
value_observed = 0.8

[[record]]
compound = "O=[N+]([O-])c1ccc(O)c([N+](=O)[O-])c1"
value_observed = 1.8

[[record]]
compound = "O=C1CN(/N=C/c2ccc([N+](=O)[O-])o2)C(=O)N1"
value_observed = 1.3

[[record]]
compound = "Cc1cccc(C)c1OCC(C)N (stereo not drawn)"
value_observed = 0.9

[[record]]
compound = "CCOC(=O)C(C)(C)Oc1ccc(Cl)cc1 [CLOFIBRATE]"
value_observed = 1.4

[[record]]
compound = "Cn1cc[nH]c1=S"
value_observed = 1.1

[[record]]
compound = "C=C(C)[C@H]1Cc2c(ccc3c2O[C@@H]2COc4cc(OC)c(OC)cc4[C@@H]2C3=O)O1"
value_observed = 2


Task: Dear colleague, please send me the reported A/G for C[C@H]1C(=O)O[C@@H]2CCN3CC=C(COC(=O)[C@](C)(O)[C@]1(C)O)[C@H]23 when you can.
Result: 1.1
